Lab note: pKd readings collected with Axl (Homo sapiens) for the following molecules.
Sequence (P30530 26-894): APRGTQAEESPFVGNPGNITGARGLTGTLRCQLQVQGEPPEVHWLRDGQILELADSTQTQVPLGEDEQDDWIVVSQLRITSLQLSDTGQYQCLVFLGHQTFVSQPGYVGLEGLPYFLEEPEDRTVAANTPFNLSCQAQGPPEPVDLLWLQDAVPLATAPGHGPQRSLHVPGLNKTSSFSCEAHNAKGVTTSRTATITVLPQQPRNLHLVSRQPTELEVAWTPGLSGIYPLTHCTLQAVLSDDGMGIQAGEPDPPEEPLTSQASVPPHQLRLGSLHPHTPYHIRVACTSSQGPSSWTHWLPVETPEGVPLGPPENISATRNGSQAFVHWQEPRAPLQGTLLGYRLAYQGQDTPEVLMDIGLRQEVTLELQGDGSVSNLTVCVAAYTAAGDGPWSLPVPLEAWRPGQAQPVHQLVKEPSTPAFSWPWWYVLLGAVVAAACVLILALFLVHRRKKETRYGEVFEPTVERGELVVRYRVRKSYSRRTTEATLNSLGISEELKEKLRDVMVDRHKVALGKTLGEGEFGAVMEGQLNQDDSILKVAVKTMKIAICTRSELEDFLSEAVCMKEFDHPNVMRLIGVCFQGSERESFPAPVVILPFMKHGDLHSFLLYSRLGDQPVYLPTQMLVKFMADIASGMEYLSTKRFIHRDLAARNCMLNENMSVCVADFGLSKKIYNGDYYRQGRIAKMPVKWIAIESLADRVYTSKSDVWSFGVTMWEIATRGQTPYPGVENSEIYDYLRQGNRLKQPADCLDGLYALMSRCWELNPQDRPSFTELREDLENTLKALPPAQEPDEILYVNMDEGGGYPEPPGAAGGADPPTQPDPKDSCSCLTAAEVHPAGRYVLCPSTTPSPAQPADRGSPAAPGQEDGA
pKd: −log10 of the molar value.

[[record]]
molecule = "COc1cc2nccc(Oc3ccc(NC(=O)c4nn(-c5ccc(F)cc5OC)cc4OCC4CC4)nc3)c2cc1OC [Compound 264]"
assay_metric = "pKd"
test_value = "> 7.00"

[[record]]
molecule = "CCOc1cn(-c2cccnn2)nc1C(=O)Nc1ccc(Oc2ccnc3cc(OC)c(OC)cc23)cn1 [Compound 5]"
assay_metric = "pKd"
test_value = "> 7.00"


Now take the following molecule into account.
Which pKd value belongs to CCOc1cn(-c2cnccc2CCN(C)C)nc1C(=O)Nc1ccc(Oc2ccnc3cc(OC)c(OC)cc23)cn1 [Compound 65] ?
> 7.00
